Test system: CD8F1 mice, subcutaneous mammary adenocarcinoma, T/C%
test protocol: NCI In Vivo Anticancer Drug Screen. Data for tumor model Mammary Adenocarcinoma CD8F1 (subcutaneous) in CD8F1
condition label: endpoint: median tumor weight (est.); dose: 12.5 mg/kg/injection; schedule: Q07DX005 (ip); vehicle: water; higher = larger tumour
Records with an inconclusive call do not appear.
T/C values by entry
parameter measured: T/C

> print(dat)
                                   compound   reported.result
1  Nc1nc2c(ncn2C2OC(CO)C(O)C2O)c(=O)[nH]1.Nc1nc2c(ncn2C2OC(CO)C(O)C2O)c(=O)[nH]1.[NH2-].[NH2-].[Pt+2] (stereo not given)   52 % of control
2  O=C(O)C1CC(c2ccccc2)=NN1c1ccccc1 (stereo not given)  101 % of control
3     Oc1cc2c3c(c1)c1cc4c(cc1c[n+]3CC2)OCO4   83 % of control
4    CCN(CC)CCNc1ccc(CO)c2sc3ccccc3c(=O)c12   67 % of control
5        O=C(O)c1c2c(nc3ccccc13)Cc1ccccc1-2    6 % of control

---

Test system: CD8F1 mice, subcutaneous mammary adenocarcinoma, T/C%
test protocol: NCI In Vivo Anticancer Drug Screen. Data for tumor model Mammary Adenocarcinoma CD8F1 (subcutaneous) in CD8F1
condition label: endpoint: median tumor weight change; dose: 125.0 mg/kg/injection; schedule: Q01DX001 (ip); vehicle: Klucel (hydroxypropylcellulose) (HPC); higher = larger tumour
Inconclusive results are not listed.
parameter measured: T/C

> print(dat)
                                    compound   reported.result
 1    Clc1ccc(C(c2ccc(Cl)cc2)C(Cl)(Cl)Cl)cc1  123 % of control
 2  CCc1ccc(C2=C(O)C(=O)C(c3ccccc3)=C(O)C2=O)cc1   59 % of control
 3  COc1ccc2[nH]c3ccc4cc[n+](CCN5CCC(C6CCN(CC[n+]7ccc8ccc9[nH]c%10ccc(OC)cc%10c9c8c7)CC6)CC5)cc4c3c2c1   68 % of control
 4                        O=C(O)C1(NO)CCCCC1   76 % of control
 5  C[C@]12CCC(=O)C(O)=C1CC[C@@H]1[C@@H]2CC[C@]2(C)C(=O)CC[C@@H]12   78 % of control
 6                      O=Cc1ccc(C=O)c(Cl)c1  104 % of control
 7  C/C(=N\N=C(/[Se])N1CC2CCC(CC2)C1)c1ccccn1  111 % of control
 8  COc1cc(C)c(C2NC(=O)c3ccccc3N2)cc1C (stereo unspecified)   69 % of control
 9  Cc1ccc(S(=O)(=O)NC(=O)C2C(=O)CC3(CCCCC3)CC2=O)cc1  122 % of control
10          O=C(CC(=O)C(F)(F)F)c1csc2ccccc12   65 % of control
11  CC(=O)NC(CCc1ccc(Cl)c(Cl)c1)c1cccc(O)c(=O)c1 (stereo unspecified)  165 % of control

---

T/C values by entry
Tested on: CD8F1 mice, subcutaneous mammary adenocarcinoma, T/C%
test protocol: NCI In Vivo Anticancer Drug Screen. Data for tumor model Mammary Adenocarcinoma CD8F1 (subcutaneous) in CD8F1
condition label: endpoint: median tumor weight change; dose: 2000.0 mg/kg/injection; schedule: Q01DX001 (ip); vehicle: saline with Tween-80; higher = larger tumour
Results filed as inconclusive are left out.
parameter measured: T/C

> print(dat)
                                   molecule   reported.result
1  O=C(O)C1Cc2nc[nH]c2CN1CO (stereo not given)   81 % of control
2  CCCCCCC(=O)CC(SCC)c1ccccc1Cl (stereo not given)   86 % of control
3  COc1cc(C(=O)N/N=C/c2cccc([N+](=O)[O-])c2)cc(OC)c1OC  119 % of control
4  Oc1c(Cl)cc(Cl)cc1C1N2CCCCC2C2c3cccn3-c3ccccc3N21 (stereo not given)   79 % of control
5  COCCCNC1=C(C#N)C(=O)NC(c2cccc([N+](=O)[O-])c2)S1 (stereo not given)   79 % of control
